Origin of the recorded values: paper PMC6009961

MEASURED_TARGET: human recombinant MAO-B (Homo sapiens, UniProt P27338)
Construct: purchased Sigma-Aldrich Chemicals (St. Louis, MO)
Sequence (P27338 1-520): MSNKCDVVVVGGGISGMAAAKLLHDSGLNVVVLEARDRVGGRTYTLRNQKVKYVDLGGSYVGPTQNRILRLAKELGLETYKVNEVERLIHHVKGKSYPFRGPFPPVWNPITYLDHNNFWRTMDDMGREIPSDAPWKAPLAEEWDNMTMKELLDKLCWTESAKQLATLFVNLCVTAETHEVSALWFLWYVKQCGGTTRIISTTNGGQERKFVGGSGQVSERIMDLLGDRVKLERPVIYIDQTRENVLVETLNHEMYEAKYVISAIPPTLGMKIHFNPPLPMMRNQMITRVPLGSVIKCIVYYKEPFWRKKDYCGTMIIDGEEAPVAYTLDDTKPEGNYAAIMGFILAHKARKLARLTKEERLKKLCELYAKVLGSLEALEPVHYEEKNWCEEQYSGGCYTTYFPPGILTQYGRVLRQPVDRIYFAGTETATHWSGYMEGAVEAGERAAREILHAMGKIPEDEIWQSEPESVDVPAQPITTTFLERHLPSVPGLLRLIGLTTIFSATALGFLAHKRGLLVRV
PROTOCOL_NOTES: MAO activity assay, fluorimetric, kynuramine substrate (MAO-B)
Type: biochemical
SETUP_CONDITIONS: 10^−3 M
REPORTED_ENDPOINT: MAO B inhibition % (%)
Numbers only, in %.

Here are 5 compounds together with their reported answers.
Cc1ccc(N2CCN(C(=S)SCC(=O)N3CCN(c4ncccn4)CC3)CC2)cc1 | 18.20
CCN1CCN(C(=S)SCC(=O)N2CCN(c3ncccn3)CC2)CC1 | 10.08
O=C(CSC(=S)N1CCN(C2CCCCC2)CC1)N1CCN(c2ncccn2)CC1 | 12.60
O=C(CSC(=S)N1CCN(c2ccc(Cl)cc2)CC1)N1CCN(c2ncccn2)CC1 | 40.98
O=C(CSC(=S)N1CCN(c2ccc(F)cc2)CC1)N1CCN(c2ncccn2)CC1 | 44.26

Record MAO B inhibition % for all entries; do not skip any.
1. O=C(CSC(=S)N1CCN(Cc2ccccc2)CC1)N1CCN(c2ncccn2)CC1
2. O=C(CSC(=S)N1CCN(c2ncccn2)CC1)N1CCN(c2ncccn2)CC1
3. O=C(CSC(=S)N1CCN(CCO)CC1)N1CCN(c2ncccn2)CC1
4. CN(C)CCN1CCN(C(=S)SCC(=O)N2CCN(c3ncccn3)CC2)CC1

1: 13.08; 2: 29.51; 3: 12.30; 4: 14.37

Noted for CN1CCN(C(=S)SCC(=O)N2CCN(c3ncccn3)CC2)CC1 : its MAO B inhibition % reads 10.23

* * *

MEASURED_TARGET: MAO-A enzyme (Homo sapiens, UniProt P21397)
Construct: purchased Sigma-Aldrich Chemicals (St. Louis, MO)
Sequence (P21397 whole entry): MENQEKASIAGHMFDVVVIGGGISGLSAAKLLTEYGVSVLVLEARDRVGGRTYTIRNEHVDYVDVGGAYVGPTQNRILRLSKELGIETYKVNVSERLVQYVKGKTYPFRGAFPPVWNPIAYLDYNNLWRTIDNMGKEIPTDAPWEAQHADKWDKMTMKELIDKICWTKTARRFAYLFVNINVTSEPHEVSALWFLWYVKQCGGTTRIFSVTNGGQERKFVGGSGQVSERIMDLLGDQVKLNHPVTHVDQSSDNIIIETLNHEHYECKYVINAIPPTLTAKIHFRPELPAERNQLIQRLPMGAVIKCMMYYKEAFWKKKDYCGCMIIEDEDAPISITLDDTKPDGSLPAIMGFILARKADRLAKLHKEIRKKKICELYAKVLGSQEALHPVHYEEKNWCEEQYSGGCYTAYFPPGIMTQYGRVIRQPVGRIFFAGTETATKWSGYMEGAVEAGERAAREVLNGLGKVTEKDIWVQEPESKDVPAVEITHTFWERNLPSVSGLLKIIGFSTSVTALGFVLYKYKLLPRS
PROTOCOL_NOTES: MAO activity assay, fluorimetric, kynuramine substrate (MAO-A)
Format: biochemical
SETUP_CONDITIONS: 10^−3 M
REPORTED_ENDPOINT: MAO-A inhibition %

CCN1CCN(C(=S)SCC(=O)N2CCN(c3ncccn3)CC2)CC1 | 11.52 ± 0.38%
O=C(CSC(=S)N1CCN(C2CCCCC2)CC1)N1CCN(c2ncccn2)CC1 | 16.75 ± 0.42%
O=C(CSC(=S)N1CCN(c2ccccc2)CC1)N1CCN(c2ncccn2)CC1 | 33.33 ± 1.30%
O=C(CSC(=S)N1CCN(CCO)CC1)N1CCN(c2ncccn2)CC1 | 15.88 ± 0.55%
O=C(CSC(=S)N1CCN(Cc2ccccc2)CC1)N1CCN(c2ncccn2)CC1 | 19.81 ± 0.59%

Record MAO-A inhibition % for all entries; do not skip any.
1. O=C(CSC(=S)N1CCN(c2ncccn2)CC1)N1CCN(c2ncccn2)CC1
2. Cc1ccc(N2CCN(C(=S)SCC(=O)N3CCN(c4ncccn4)CC3)CC2)cc1
3. O=C(CSC(=S)N1CCN(c2ccc(Cl)cc2)CC1)N1CCN(c2ncccn2)CC1
4. CN(C)CCN1CCN(C(=S)SCC(=O)N2CCN(c3ncccn3)CC2)CC1

1. 31.25 ± 0.94%
2. 37.50 ± 1.42%
3. 13.45 ± 0.38%
4. 18.74 ± 0.52%

Record MAO-A inhibition % for all entries; do not skip any.
1. CN1CCN(C(=S)SCC(=O)N2CCN(c3ncccn3)CC2)CC1
2. Cc1ccc(CN2CCN(C(=S)SCC(=O)N3CCN(c4ncccn4)CC3)CC2)cc1

12.84 ± 0.59%
32.31 ± 0.86%
